# system_name: Fibroblast growth factor receptor 1 (Homo sapiens)
# Sequence (P11362 whole entry): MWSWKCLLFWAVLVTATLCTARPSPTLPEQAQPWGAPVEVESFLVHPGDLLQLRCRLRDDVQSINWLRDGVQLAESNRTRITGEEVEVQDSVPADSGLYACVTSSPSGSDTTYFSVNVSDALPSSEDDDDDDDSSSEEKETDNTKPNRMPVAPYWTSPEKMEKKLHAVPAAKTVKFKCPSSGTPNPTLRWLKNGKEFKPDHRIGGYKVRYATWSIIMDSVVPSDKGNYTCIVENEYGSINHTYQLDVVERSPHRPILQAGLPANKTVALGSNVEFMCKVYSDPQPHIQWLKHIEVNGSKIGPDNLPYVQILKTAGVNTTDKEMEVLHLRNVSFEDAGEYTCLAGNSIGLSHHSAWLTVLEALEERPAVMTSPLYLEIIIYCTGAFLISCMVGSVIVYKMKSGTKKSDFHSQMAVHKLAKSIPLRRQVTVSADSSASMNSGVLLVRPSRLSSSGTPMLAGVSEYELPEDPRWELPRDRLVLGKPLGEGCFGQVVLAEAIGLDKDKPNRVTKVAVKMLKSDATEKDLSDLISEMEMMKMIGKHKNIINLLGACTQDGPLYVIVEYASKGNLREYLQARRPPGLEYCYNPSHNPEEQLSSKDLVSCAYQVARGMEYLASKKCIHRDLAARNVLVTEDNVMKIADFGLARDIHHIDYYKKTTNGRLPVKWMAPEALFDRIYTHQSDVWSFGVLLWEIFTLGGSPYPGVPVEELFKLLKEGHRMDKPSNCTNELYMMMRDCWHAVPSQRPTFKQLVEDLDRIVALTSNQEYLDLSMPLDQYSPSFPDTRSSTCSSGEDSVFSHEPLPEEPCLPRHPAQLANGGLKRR
value_kind: IC50

Form field: reported IC50 of `COCCNc1cc(NC(=O)N2CCCc3cc(CN4CCCCOC4=O)c(C=O)nc32)ncc1C#N` > 10 µM

// provenance: ChEMBL document CHEMBL5729737
